tested on: PC-3 prostate; assay: NCI tumour cell line growth inhibition, 48 h
Listed molecules paired with reported TGI

Prompt: Give recorded TGI with PC-3 prostate for the following molecule: "CCN1CCN(Cc2ccc(NC(=O)c3nc4ccc5[nH]ncc5c4c4c3CCCC4)cc2C(F)(F)F)CC1"
Response: 4.2 µM

Prompt: Give recorded TGI with PC-3 prostate for the following molecule: "Cc1ccc(/C(=C/C=C(/C#N)C(N)=O)Sc2ncnn2C)cc1"
Response: 25.5 µM

Prompt: Give recorded TGI with PC-3 prostate for the following molecule: COc1ccc(N2C(=O)C3c4[nH]c5c(C)cccc5c4C4CCC(c5ccccc5)CC4C3C2=O)cc1 (stereo not drawn)
Response: 28.2 µM

Prompt: Give recorded TGI with PC-3 prostate for the following molecule: "O=c1[nH]c2ccccc2c(O)c1/C=N/C(=S)NCCc1ccccc1"
Response: > 100 µM

Prompt: Give recorded TGI with PC-3 prostate for the following molecule: "Brc1cccc(Nc2ncnc3sc4c(c23)CCC2(C4)OCCO2)c1"
Response: > 100 µM

Prompt: Give recorded TGI with PC-3 prostate for the following molecule: "O=[N+]([O-])c1ccc2c3c1[C@H]1O[C@H]1c1cccc(c1-3)[C@@H]1O[C@H]21"
Response: > 20 µM

Prompt: Give recorded TGI with PC-3 prostate for the following molecule: "OC(Cc1ccc2ccccc2n1)(C(F)(F)F)C(F)(F)F"
Response: > 10 µM

Prompt: Give recorded TGI with PC-3 prostate for the following molecule: COc1ccc2nc3n(c2c1)C(c1c(F)cccc1Cl)SC3 (stereo not drawn)
Response: > 100 µM

---

Listed compounds paired with reported TGI
system: SF-539 CNS; experiment: NCI tumour cell line growth inhibition, 48 h

Compound	Measured On	TGI
COc1ccc(O)c2c(=O)ccccc12	SF-539 CNS	> 100 µM
CCCCc1ccc(N2C(=O)c3cc([N+](=O)[O-])cnc3S2(=O)=O)cc1	SF-539 CNS	> 100 µM
COC(=O)CCC(C)[C@H]1CCC2C3C(C[C@H](OC(C)=O)[C@@]21C)[C@@]1(C)CCC2(C[C@H]1C[C@H]3OC(C)=O)OOC1(CCC(C(C)(C)C)CC1)OO2 (stereo partly drawn)	SF-539 CNS	> 100 µM
O=c1c2[nH]ccc2nc2n1CCS2	SF-539 CNS	> 100 µM
CCCCCCCCCCCCCC(=S)N/C=C/OC	SF-539 CNS	> 100 µM

Prompt: Returns the measured TGI for the input compound. Input: "COc1ccc(CNC(=O)[C@H](Cc2ccc(O)cn2)NC(C)=O)cc1OC"
Response: > 100 µM

Prompt: Returns the measured TGI for the input compound. Input: "CC(C)c1nc(Cl)nc(Cl)c1Cl"
Response: 1.82 µM

---

test system: T-47D breast; test: NCI tumour cell line growth inhibition, 48 h
Property: TGI (µM)
Unit µM implied. Number only.

Field: example entries. Status: answers known.
Chemical String	TGI / µM
O=C(O)c1c[nH]c2cc(OCc3ccccc3)ccc2c1=O	38.8
c1ccc(-c2nc([P+](c3ccccc3)(c3ccccc3)c3ccccc3)c(N3CCOCC3)o2)cc1	6.81
C=C(C)[C@@H]1CC[C@]2(C)[C@H](CC[C@@H]3[C@@H]([C@@](C)(O)CCC=C(C)C)CC[C@]32C)[C@@]1(C)CCC(=O)N1CCN(C)CC1	19.6

Prompt: Returns the measured TGI for the input compound. Input: "CN(C)CCn1c(=O)nc2c3c(c([N+](=O)[O-])ccc31)Nc1ccc(O)cc1-2"
Response: 6.48

Prompt: Returns the measured TGI for the input compound. Input: "O=C1C=C(Nc2cccnc2)c2ccccc2C1=O"
Response: 43.8

Prompt: Returns the measured TGI for the input compound. Input: "N=C(N)c1ccc(-c2ccc(-c3cccs3)o2)cc1"
Response: 4.88

Prompt: Returns the measured TGI for the input compound. Input: "Brc1cccc(Nc2ncnc3sc4c(c23)CCC2(C4)OCCO2)c1"
Response: 40.9

Prompt: Returns the measured TGI for the input compound. Input: "C/C(=N\NC(=S)N1CCN(c2ccccn2)CC1)c1cccc(C)n1"
Response: 35

Prompt: Returns the measured TGI for the input compound. Input: "CNC[C@@H](NC(=O)c1ccc(-c2nc([C@H]3CC[C@H](O)[C@@H](F)C3)cnc2N)cc1F)c1cc(F)cc(Br)c1"
Response: 36.2

---

test system: HOP-18 NSCLC; test: NCI tumour cell line growth inhibition, 48 h
Property: TGI

Field: example entries. Status: answers known.
Molecule	Measured On	Result
CC1[C@@H]2CC=C3C4CCC5Cc6nc7c(nc6C[C@@]5(C)C4CC(=O)[C@]32CO[C@@]1(O)C(O)CC(C)(C)O)CC1CCC2C3=C[C@H]4O[C@@]5(O[C@@](C)(CO)C[C@@H]5O)C(C)[C@@]4(O)[C@]3(C)[C@@H](O)CC2[C@]1(C)C7 (some centres undefined)	HOP-18 NSCLC	0.739 µM
COC(=O)C1C(O)C(C)C(O)C(C)(O)/C=C/C=C(C)C(=O)Nc2c(C)c(OC(C)=O)c3c(c2O)C(=O)C(C)=C2OCOC(=C23)C(C)=CC(C)(O)C(O)C(C)C1OC(C)=O (centres undefined)	HOP-18 NSCLC	> 100 µM
CCC1(CN(C)C)CC/C(=C\c2ccc(OC)cc2)C1=O (centres undefined)	HOP-18 NSCLC	> 100 µM
C/C(=C\COc1ccc2ccc(=O)oc2c1)C1=CC(=O)C(C)(C)O1	HOP-18 NSCLC	80.5 µM

Prompt: Returns the measured TGI for the input molecule. Input: "CC(C)S(=O)(=O)ON1C(=O)c2ccc(N(C)C)cc2C1=O"
Response: 27.3 µM

Prompt: Returns the measured TGI for the input molecule. Input: "CCN(CC)c1c(C)c(C(=O)OC)nn1-c1ccccc1"
Response: > 100 µM

Prompt: Returns the measured TGI for the input molecule. Input: O=C1c2ccccc2OCC1/C=N/O (centres undefined)
Response: > 100 µM

Prompt: Returns the measured TGI for the input molecule. Input: NC(CCCNCc1ccccc1)C(=O)O (centres undefined)
Response: > 100 µM

Prompt: Returns the measured TGI for the input molecule. Input: "CC(C)(C)c1cc(COc2c3sc(=S)sc3c(OCc3cc(C(C)(C)C)cc(C(C)(C)C)c3)c3sc(=S)sc23)cc(C(C)(C)C)c1"
Response: > 100 µM

---

Listed compounds paired with reported TGI
tested on: OVCAR-5 ovarian; test: NCI tumour cell line growth inhibition, 48 h

Field: example entries. Status: answers known.
Compound	Result
O=C1CC2(CCC(O)(c3ccco3)C(C(=O)c3ccco3)C2)C(=O)c2ccccc2N1 (centres undefined)	> 100 µM
CCc1cccc(C)c1NC(=O)CCc1nnc(SC)o1	> 100 µM
COc1ccc(OC)c(CCc2cc(OC)ccc2OC)c1	> 10 µM
COc1ccc2cc(C(=O)NCCCNC(=O)c3ccc4c(OC)c(OC)ccc4c3)ccc2c1OC	> 100 µM
CCOC(=O)NC(C(F)(F)F)(C(F)(F)F)P(=O)(OCC(C)C)OCC(C)C	58.7 µM
Clc1ccc(Cc2nc3cc(Cl)ccc3o2)cc1	> 100 µM
COC(=O)[C@@H](C)C[C@H](Cc1ccccc1)NC(=O)c1nc([C@@H](C[C@H](C(C)C)N(C)C(=O)[C@@H](NC(=O)[C@H]2CCCCN2C)C(C)C)OC(C)=O)sc1C(C)C	16 µM
CS(=O)(=O)c1ccc(NNc2cc(=O)[nH]c(=O)[nH]2)cc1	> 100 µM

Let's switch to this compound now.
Prompt: Returns the measured TGI for the input compound. Input: Cc1c2cccc(Sc3ccccc3)c2c2c3c(cccc13)[S+](c1ccccc1)C2 (centres undefined)
Response: 12.1 µM

---

tested on: CAKI-1 renal; assay: NCI tumour cell line growth inhibition, 48 h
Listed compounds paired with reported TGI

Compound	TGI
NC(CCCNCc1ccccc1)C(=O)O (centres undefined)	> 100 µM
CC(=O)O[C@H]1C(=O)[C@@]2(C)[C@H]([C@H](OC(=O)C3CCCCC3)[C@]3(O)C[C@H](OC(=O)[C@H](O)[C@@H](NC(=O)OC(C)(C)C)c4ccccc4)C(C)=C1C3(C)C)[C@]1(OC(C)=O)CO[C@@H]1C[C@@H]2O	> 12.5 µM
COC(=O)[C@]12CC[C@@H](C(=O)/C=C/c3cccnc3)[C@@H]1[C@H]1CC[C@@H]3[C@@]4(C)C/C(=C/c5cccnc5)C(=O)C(C)(C)[C@@H]4CC[C@@]3(C)[C@]1(C)CC2	2 µM
NC(N)=NS(=O)(=O)c1ccc(NC(=O)c2cccc3cc4ccccc4nc23)cc1	> 100 µM
COc1ccc2[nH]c(Cl)c(/C=C3/C(=O)N(c4ccccc4)c4ccccc43)c2c1	> 100 µM

Prompt: Returns the measured TGI for the input compound. Input: O=c1cc(O)ccn1C1C=C(CO)C(O)C1O (centres undefined)
Response: > 625 µM

Prompt: Returns the measured TGI for the input compound. Input: "CNC[C@@H](NC(=O)c1ccc(-c2nc([C@H]3CC[C@H](O)[C@@H](F)C3)cnc2N)cc1F)c1cc(F)cc(Br)c1"
Response: 28.3 µM

Prompt: Returns the measured TGI for the input compound. Input: "O=C1C(=C2SC(c3ccccc3)(c3ccccc3)c3ccccc32)C(=O)c2ccccc21"
Response: > 100 µM

Prompt: Returns the measured TGI for the input compound. Input: NC(Cc1cnc(I)[nH]1)C(=O)O (centres undefined)
Response: > 100 µM
